Target: T1, 4H94-AA
T1 chain: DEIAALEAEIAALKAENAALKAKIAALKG
Assay: two-hybrid library CCmax;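 further: natural log of median RNA to DNA barcode read ratio; higher means stronger binding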
Settings: mean of both orientations
Observed Property: interaction score

[A] DKIAALEAEIAALEAKNAALKAKIAALEG [4H2109-AA]
[B] DKIAALEAENAALKAKIAALEAEIAALKG [4H2274-AA]
Enquiry: Lab notebook, comparison: A versus B , higher interaction score goes to which? Please respond with the label that marks your chosen entry.
Return: A
(A: 1.43, B: -1.32)

[A] DKIAALKAKIAALEAKNAALEAEIAALEG [4H2865-AA]
[B] DEIAALKAENAALKAKIAALKAEIAALEG [4H745-AA]
Enquiry: Lab notebook, comparison: A versus B , higher interaction score goes to which? Please respond with the label that marks your chosen entry.
Return: A

[I] DEIAALKAEIAALEAENAALEAKNAALKG [4H536-AA]
[II] DEIAALKAENAALKAEIAALEAKIAALKG [4H710-AA]
Enquiry: Lab notebook, comparison: I versus II , higher interaction score goes to which? Please respond with the label that marks your chosen entry.
Return: II

[P] DEIAALKAEIAALEAKNAALKAEIAALKG [4H570-AA]
[Q] DENAALEAKIAALEAENAALKAKIAALKG [4H1310-AA]
[R] DEIAALKAKIAALEAENAALKAKIAALEG [4H797-AA]
Enquiry: Hi! Can you put these in order of interaction score, lowest number first? List the labels according to the requested ordering.
Return: Q, R, P
(Q: -0.926, R: 0.948, P: 1.71)

[a] DKIAALEAKNAALEAKIAALKAEIAALEG [4H2473-AA]
[b] DKNAALEAEIAALKAENAALKAKIAALEG [4H3165-AA]
Enquiry: Lab notebook, comparison: a versus b , higher interaction score goes to which? Please respond with the label that marks your chosen entry.
Return: b
(b: 0.996, a: -0.873)
